target: UniProt P05181; assay: Inhibition of CYP2E1 (unknown origin) at 10 uM relative to control; assay type: ADME
Sequence (P05181 whole entry): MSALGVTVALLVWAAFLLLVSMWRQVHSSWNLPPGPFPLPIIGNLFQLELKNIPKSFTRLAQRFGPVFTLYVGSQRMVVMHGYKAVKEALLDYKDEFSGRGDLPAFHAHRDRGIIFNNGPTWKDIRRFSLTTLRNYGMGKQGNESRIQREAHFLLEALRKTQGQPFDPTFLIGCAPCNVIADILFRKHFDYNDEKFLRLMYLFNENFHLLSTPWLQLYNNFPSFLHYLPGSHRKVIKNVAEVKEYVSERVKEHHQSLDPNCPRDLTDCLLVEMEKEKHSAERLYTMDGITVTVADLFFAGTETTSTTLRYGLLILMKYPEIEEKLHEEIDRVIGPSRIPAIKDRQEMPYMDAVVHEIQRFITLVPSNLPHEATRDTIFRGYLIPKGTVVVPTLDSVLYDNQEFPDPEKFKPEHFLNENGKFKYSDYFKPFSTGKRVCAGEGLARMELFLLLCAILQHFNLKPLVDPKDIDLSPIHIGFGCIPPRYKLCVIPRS
ENDPOINT_LABEL: inhibition at 10 µM

[Q] GET /values?readout=inhibition at 10 µM&item= "N#Cc1ccc(N2CCN([C@H]3C=C(c4cc5ncccc5c(=O)[nH]4)CC3)CC2)cc1"
[A] ≤ 23%

###

target: CYP2C9 (Homo sapiens); assay: Inhibition of CYP2C9 (unknown origin) at 10 uM relative to control; format: ADME
Sequence (P11712 whole entry): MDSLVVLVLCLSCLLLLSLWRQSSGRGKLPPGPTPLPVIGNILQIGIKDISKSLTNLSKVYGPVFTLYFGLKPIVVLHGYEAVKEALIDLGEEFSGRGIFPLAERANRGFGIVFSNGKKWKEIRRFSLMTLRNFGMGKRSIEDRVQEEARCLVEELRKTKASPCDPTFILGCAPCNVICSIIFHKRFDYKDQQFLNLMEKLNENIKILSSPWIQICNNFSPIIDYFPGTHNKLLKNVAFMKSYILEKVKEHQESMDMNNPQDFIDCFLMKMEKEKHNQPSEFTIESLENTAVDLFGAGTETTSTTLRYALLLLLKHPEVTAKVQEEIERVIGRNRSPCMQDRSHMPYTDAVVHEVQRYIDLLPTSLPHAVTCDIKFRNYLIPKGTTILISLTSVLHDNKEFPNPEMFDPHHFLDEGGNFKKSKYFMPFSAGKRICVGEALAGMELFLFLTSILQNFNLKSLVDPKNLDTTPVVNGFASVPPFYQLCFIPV
ENDPOINT_LABEL: inhibition at 10 µM

[Q] GET /values?readout=inhibition at 10 µM&item= "N#Cc1ccc(N2CCN([C@H]3C=C(c4cc5ncccc5c(=O)[nH]4)CC3)CC2)cc1"
[A] ≤ 23%

###

experiment: Protein binding in mouse plasma; assay type: ADME, cell-free; conditions: read-out: PPB (converted)
ENDPOINT_LABEL: fraction unbound

[Q] GET /values?readout=fraction unbound&item= "N#Cc1ccc(N2CCN([C@H]3C=C(c4cc5ncccc5c(=O)[nH]4)CC3)CC2)cc1"
[A] 0.074

###

molecular target: Poly [ADP-ribose] polymerase 1 (Homo sapiens); experiment: Inhibition of N-terminal GST-tagged human full length PARP1 (2 to 1041 residues) expressed in baculovirus infected Sf9 cells using histone mixture (H2A and H2B) and biotinylated NAD+ as substrate in presence of activated DNA incubated for 60 mins by chemiluminescence assay
Each entry below lists one item and its recorded pIC50 value.
Bear in mind: pIC50 is minus log10 of a mol/L concentration; give just that figure.

Here are 8 compounds together with their reported answers.
N#Cc1ccc(N2CCN([C@H]3C=C(c4cc5ncc(F)cc5c(=O)[nH]4)CC3)CC2)cc1 ... 9.05
N#Cc1ccc(N2CCN([C@H]3C=C(c4cc5ncccc5c(=O)[nH]4)CC3)CC2)nc1 ... 9.00
N#Cc1ccc(N2CCN([C@H]3C=C(c4cc5ncccc5c(=O)[nH]4)CC3)CC2)cc1 ... 8.96
N#Cc1ccc(N2CCN([C@@H]3C=C(c4cc5c(N)cc(F)cc5c(=O)[nH]4)CC3)CC2)cc1 ... 8.30
CNC(=O)c1ccc(N2CCN(CCCc3cc4c(N)cc(F)cc4c(=O)[nH]3)CC2)cc1 ... 9.10
N#Cc1ccc(N2CCN([C@@H]3C=C(c4cc5c(N)cccc5c(=O)[nH]4)CC3)CC2)cc1 ... 8.60
N#Cc1ccc(N2CCN(CCCc3cc4c(N)cc(F)cc4c(=O)[nH]3)CC2)cc1 ... 9.22
NC(=O)c1ccc(N2CCN(CCCc3cc4c(N)cc(F)cc4c(=O)[nH]3)CC2)cc1 ... 9.40

Below: the item to evaluate.
[Q] GET /values?readout=pIC50&item= "N#Cc1ccc(N2CCN([C@H]3C=C(c4cc5c(N)cc(F)cc5c(=O)[nH]4)CC3)CC2)cc1"
[A] 9.00

###

target: CYP2D6 (Homo sapiens); test: Inhibition of CYP2D6 (unknown origin) at 10 uM relative to control; type: ADME
Sequence (P10635 whole entry): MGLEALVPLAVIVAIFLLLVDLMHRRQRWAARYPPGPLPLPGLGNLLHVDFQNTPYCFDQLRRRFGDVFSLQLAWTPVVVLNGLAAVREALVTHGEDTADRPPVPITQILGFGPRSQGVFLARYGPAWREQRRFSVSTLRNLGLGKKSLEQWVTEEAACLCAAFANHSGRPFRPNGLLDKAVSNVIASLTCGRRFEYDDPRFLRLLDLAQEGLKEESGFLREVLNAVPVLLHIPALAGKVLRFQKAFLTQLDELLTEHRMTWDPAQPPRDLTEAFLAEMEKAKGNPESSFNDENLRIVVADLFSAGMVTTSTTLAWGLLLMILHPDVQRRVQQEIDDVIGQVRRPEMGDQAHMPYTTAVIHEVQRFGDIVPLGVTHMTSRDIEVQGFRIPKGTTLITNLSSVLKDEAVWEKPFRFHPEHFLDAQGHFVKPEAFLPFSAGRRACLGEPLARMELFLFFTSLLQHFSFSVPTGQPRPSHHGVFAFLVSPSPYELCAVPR
ENDPOINT_LABEL: inhibition at 10 µM

[Q] Notebook: pull reported inhibition at 10 µM for CYP2D6 (Homo sapiens), entry "N#Cc1ccc(N2CCN([C@H]3C=C(c4cc5ncccc5c(=O)[nH]4)CC3)CC2)cc1"
[A] ≤ 23%

###

target: Poly [ADP-ribose] polymerase 1 (Homo sapiens, UniProt P09874); assay: Inhibition of N-terminal GST-tagged human full length PARP1 (2 to 1041 residues) expressed in baculovirus infected Sf9 cells using histone mixture (H2A and H2B) and biotinylated NAD+ as substrate in presence of activated DNA incubated for 60 mins by chemiluminescence assay
Sequence (P09874 whole entry, the tested form may be a part): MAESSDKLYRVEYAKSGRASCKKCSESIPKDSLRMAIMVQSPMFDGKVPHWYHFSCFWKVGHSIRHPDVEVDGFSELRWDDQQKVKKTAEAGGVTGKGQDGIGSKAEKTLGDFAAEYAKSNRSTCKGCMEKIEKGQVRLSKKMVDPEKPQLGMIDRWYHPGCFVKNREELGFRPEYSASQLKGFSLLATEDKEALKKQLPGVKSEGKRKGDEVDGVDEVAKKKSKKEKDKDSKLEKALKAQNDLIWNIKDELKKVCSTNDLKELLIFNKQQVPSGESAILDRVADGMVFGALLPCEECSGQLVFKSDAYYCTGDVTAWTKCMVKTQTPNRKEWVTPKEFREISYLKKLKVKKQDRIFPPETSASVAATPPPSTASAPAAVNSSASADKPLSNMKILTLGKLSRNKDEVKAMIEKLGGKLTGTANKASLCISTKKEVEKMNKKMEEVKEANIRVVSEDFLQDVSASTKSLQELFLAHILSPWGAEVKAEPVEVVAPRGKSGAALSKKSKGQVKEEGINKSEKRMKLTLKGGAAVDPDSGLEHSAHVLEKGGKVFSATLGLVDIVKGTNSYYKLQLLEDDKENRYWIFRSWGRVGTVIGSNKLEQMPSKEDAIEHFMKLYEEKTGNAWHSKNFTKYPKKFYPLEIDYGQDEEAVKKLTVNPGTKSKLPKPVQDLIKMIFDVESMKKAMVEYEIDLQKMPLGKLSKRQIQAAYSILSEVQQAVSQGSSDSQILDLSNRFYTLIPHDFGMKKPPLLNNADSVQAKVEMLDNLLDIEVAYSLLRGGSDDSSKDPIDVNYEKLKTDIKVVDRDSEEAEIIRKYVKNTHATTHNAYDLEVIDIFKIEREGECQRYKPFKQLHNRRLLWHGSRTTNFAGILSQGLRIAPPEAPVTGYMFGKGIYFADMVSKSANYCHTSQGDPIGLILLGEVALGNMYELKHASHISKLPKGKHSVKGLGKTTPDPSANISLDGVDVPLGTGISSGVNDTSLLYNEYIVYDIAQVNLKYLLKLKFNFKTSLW
ENDPOINT_LABEL: IC50 (nM)
Hi! Could you send only the number? It should be in nM, unit omitted.

Here are 4 compounds together with their reported answers.
N#Cc1ccc(N2CCN([C@H]3C=C(c4cc5c(N)cc(F)cc5c(=O)[nH]4)CC3)CC2)c(F)c1 ... 0.9
N#Cc1ccc(N2CCN([C@H]3C=C(c4cc5c(N)cccc5c(=O)[nH]4)CC3)CC2)cc1 ... 0.6
Nc1cc(F)cc2c(=O)[nH]c(CCCN3CCN(c4ccc(F)cc4)CC3)cc12 ... 0.9
N#Cc1ccc(N2CCN(CCCc3cc4c(N)cccc4c(=O)[nH]3)CC2)cc1 ... 0.6

Below: the item to evaluate.
[Q] GET /values?readout=IC50&item= "N#Cc1ccc(N2CCN([C@@H]3C=C(c4cc5c(N)cc(F)cc5c(=O)[nH]4)CC3)CC2)c(F)c1"
[A] 5.6

Where do the numbers come from? From ChEMBL document CHEMBL4673259.
